target: NR2F6 (Homo sapiens, UniProt P10588); construct: expressed in transfected cells; also transient transfection; assay: NR2F6 agonist screening, Firefly signal cmpd/DMSO; assay type: cell-based; details: first set screening, 10 μM, repeat 1
Sequence (P10588 whole entry): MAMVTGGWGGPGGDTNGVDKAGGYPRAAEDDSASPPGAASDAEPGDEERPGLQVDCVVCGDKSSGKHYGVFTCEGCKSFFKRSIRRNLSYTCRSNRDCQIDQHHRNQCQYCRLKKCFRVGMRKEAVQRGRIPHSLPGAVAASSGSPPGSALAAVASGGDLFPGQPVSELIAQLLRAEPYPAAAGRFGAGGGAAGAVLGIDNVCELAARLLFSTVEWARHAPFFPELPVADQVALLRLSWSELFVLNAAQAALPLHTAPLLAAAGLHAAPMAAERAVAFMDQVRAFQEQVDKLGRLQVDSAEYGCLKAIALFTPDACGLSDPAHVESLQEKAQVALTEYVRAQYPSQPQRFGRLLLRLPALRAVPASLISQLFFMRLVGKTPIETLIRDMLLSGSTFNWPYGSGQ
MEASUREMENT LABEL: Firefly, cmpd/DMSO repeat 1
Answer with the value's number alone.

Report measured Firefly, cmpd/DMSO repeat 1; entry is "CCn1c(=O)c2cc(C(=O)Nc3ccc4c(C)cc(=O)oc4c3)sc2c2ccccc21"
2.7

Report measured Firefly, cmpd/DMSO repeat 1; entry is "COc1ccc(-c2cn3cccc(C)c3n2)cc1"
2.2

We now examine a further compound.
Report measured Firefly, cmpd/DMSO repeat 1; entry is "Cc1ccnc(NC(=O)c2cc3sc4ccccc4c3s2)c1"
2.2
